- assay.name: chemical genetic growth profiling, strain panel (AID 1159580);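 further: tested at 20 µM; growth read once vehicle control cultures reached saturation at 30 °C; 1 = growth at the plate median or of vehicle wells; lower values mean less growth of the strain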
- particulars: S. cerevisiae deletion strains, growth OD, locus YDR392W, strain spt3
Among all 5,500 compounds or so, about 2,000 (36%) were called active. About 18% were inconclusive and are not listed. No stated cut-off is given here; in the data, active means normalized growth mostly below about 0.91 (no sharp cut-off); inconclusive means no clear call, values can overlap the other calls; inactive means mostly above about 0.92. The list shows a part of the results.
Returns: one label drawn from Y (active), N (inactive)

These recorded examples may help you get a feel for the data.
- compound: "COc1ccc2c3c([nH]c2c1)C(C)=NCC3"
  assigned.class: "N"
- compound: "C#C[C@]1(O)CCC2C3CCC4=C(CCC(=O)C4)C3CC[C@@]21C (stereo partly specified)"
  assigned.class: "N"
- compound: "C[C@]12CCC(=O)C=C1CCC1C2[C@@H](O)C[C@@]2(C)C1CC[C@]2(O)C(=O)CO (stereo partly specified)"
  assigned.class: "N"
- compound: "COc1ccc2c(c1)c(CC(=O)O)c(C)n2C(=O)c1ccc(Cl)cc1"
  assigned.class: "N"
- compound: "CC1(C)CCC2(C(=O)O)CCC3(C)C(=CCC4C5(C)CCC(O)C(C)(C)C5C(O)CC43C)C2C1 (stereo unspecified)"
  assigned.class: "N"

Recorded call for Nc1c2c(nc3ccccc13)CCCC2O (stereo unspecified) ? N

* * *

- assay.name: chemical genetic growth profiling, strain panel (AID 1159580)
- particulars: S. cerevisiae deletion strains, growth OD, locus YHR200W, strain rpn10
Out of some 5,500 compounds screened, about 2,000 (36%) were called active. Another 18% or so got no clear call; they are omitted. No stated cut-off is given here; in the data, active means normalized growth mostly below about 0.91 (no sharp cut-off); inconclusive means no clear call, values can overlap the other calls; inactive means mostly above about 0.92. The list shows a part of the results.
Returns: one label drawn from t for active, f for inactive

These recorded examples may help you get a feel for the data.
- molecule: "CC1(C)CC[C@@]2(C(=O)O)C(C1)C1=CCC3[C@@]4(C)CC[C@H](O)C(C)(C)C4CC[C@@]3(C)[C@]1(C)C[C@@H]2O (stereo not given in full)"
  assigned.class: "f"
- molecule: "COc1ccc2[nH]cc(CCN)c2c1"
  assigned.class: "f"
- molecule: "C/C=C1\\[C@H]2C=C(C)C[C@]1(N)c1ccc(=O)[nH]c1C2"
  assigned.class: "f"
- molecule: "C#C[C@]1(O)CCC2C3CCC4=CC(=O)CC[C@@H]4C3CC[C@@]21CC (stereo not given in full)"
  assigned.class: "f"
- molecule: "C[C@@H]1CC[C@H]2[C@@H](C)C(=O)O[C@@H]3O[C@@]4(C)CC[C@@H]1[C@]32OO4"
  assigned.class: "t"

Consider the additional molecule presented here.
Recorded call for Nc1ccccc1C(=O)CC(N)C(=O)O (stereo not given) ? f

* * *

- assay.name: chemical genetic growth profiling, strain panel (AID 1159580);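 further: tested at 20 µM; growth read once vehicle control cultures reached saturation at 30 °C; 1 = growth at the plate median or of vehicle wells; lower values mean less growth of the strain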
- particulars: S. cerevisiae deletion strains, growth OD, locus YPR163C, strain tif3, hits give low values
Among all 5,500 compounds or so, about 2,000 (36%) were called active. Inconclusive results (about 18%) are left out. This is one part of the list. Where a SMILES comes first, the peptide text is derived from it. Bridges are numbered along the chain shown (N, C = ends). [ ]: non-standard residue; d: D form. The star is where a group is joined. ξ: configuration not given here. ξDab(CH2SO3H) = NC(CCNCS(=O)(=O)O)C(=O)O; Heptanoyl(6-Me) = CC(C)CCCCC(=O)*; Dab = NCC[CH](N)C(=O)O
assay.metric: normalized growth
Answers are plain numbers.

Check out these entries, answers already filled in.
- compound: "NC12CC3CC(CC(C3)C1)C2"
  readout.value: 1.02
- compound: "CCC(C)C(NC)C(=O)O (stereo unspecified)"
  readout.value: 0.985
- compound: "CC(=O)OC1CC(OC(C)=O)C2(C)C(CC(OC(C)=O)C3(C)C4=CC(=O)OC(=O)C4(C)CCC32)C1(C)C (stereo unspecified)"
  readout.value: 1.02

Respectfully, I request normalized growth for each entry included below.
1. CC1(C)CC[C@]2(C(=O)O)CC[C@]3(C)C(=CCC4[C@@]5(C)CC[C@H](O)[C@@](C)(CO)C5CC[C@]43C)C2C1 (stereo partly specified)
2. C/C=C(/C)C(=O)O[C@@H]1[C@H](OC(C)=O)[C@@]2(CO)C(CC1(C)C)C1=CCC3[C@@]4(C)CC[C@H](O[C@@H]5O[C@H](C(=O)O)[C@@H](O[C@@H]6O[C@H](CO)[C@@H](O)[C@H](O)[C@H]6O)[C@H](O)[C@H]5O[C@@H]5O[C@H](CO)[C@@H](O)[C@H](O)[C@H]5O)[C@](C)(CO)C4CC[C@@]3(C)[C@]1(C)C[C@H]2O (stereo partly specified)
3. CC(=O)O[C@H]1CC[C@@]2(C)C(CC[C@]3(C)C2CC=C2C4CC(C)(C)CC[C@]4(C)CC[C@]23C)C1(C)C (stereo partly specified)
4. CC(=O)OC1CC[C@@]2(C)C(CC[C@]3(C)C2CCC2C4CC(C)(C)CCC4(C(=O)O)CC[C@]23C)C1(C)C (stereo partly specified)
5. Nc1c2ccccc2nc2ccccc12
6. CCC(C)C1NC(=O)C(CCNCS(=O)(=O)O)NC(=O)C(NC(=O)C(CCNCS(=O)(=O)O)NC(=O)C(NC(=O)C(CCNCS(=O)(=O)O)NC(=O)CCCCC(C)C)C(C)O)CCNC(=O)C(C(C)O)NC(=O)C(CCNCS(=O)(=O)O)NC(=O)C(CCNCS(=O)(=O)O)NC(=O)C(C(C)CC)NC1=O (stereo unspecified) ({Heptanoyl(6-Me)}-[ξDab(CH2SO3H)]T[ξDab(CH2SO3H)][Dab][ξDab(CH2SO3H)]II[ξDab(CH2SO3H)][ξDab(CH2SO3H)]T; lactam 4-C; configuration not given here)
7. C[C@@H]1CC[C@]2(C(=O)O)CC[C@]3(C)C(=CCC4[C@@]5(C)CC[C@H](O)C(C)(C)C5CC[C@]43C)C2[C@H]1C (stereo partly specified)
8. COc1ccc2[nH]cc(CCN)c2c1

1. 1
2. 1.02
3. 1.02
4. 0.985
5. 0.974
6. 0.971
7. 0.997
8. 0.995

* * *

- assay.name: chemical genetic growth profiling, strain panel (AID 1159580);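 further: tested at 20 µM; growth read once vehicle control cultures reached saturation at 30 °C; 1 = growth at the plate median or of vehicle wells; lower values mean less growth of the strain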
- particulars: S. cerevisiae deletion strains, growth OD, locus YOR001W, strain rrp6
Hit rate of the full screen: of about 5,500 compounds, about 2,000 (36%) were called active. Inconclusive results (about 18%) are left out. Cut-off read from the data, not from the text of the source: active = normalized growth mostly below about 0.91 (no sharp cut-off); inconclusive = no clear call, values can overlap the other calls; inactive = mostly above about 0.92. The list shows a part of the results.
Returns: one label drawn from YES for active, NO for inactive

These recorded examples may help you get a feel for the data.
- compound: "CCN1C[C@]2(OC(=O)c3ccccc3NC(C)=O)CCC(OC)[C@]34C1[C@H](CC23)[C@@]1(O)CC(OC)[C@H]2CC4C1(O)[C@H]2OC (stereo partly drawn)"
  assigned.class: "NO"
- compound: "COC(=O)Nc1nc2ccc(Sc3ccccc3)cc2[nH]1"
  assigned.class: "NO"

Consider the additional compound presented here.
Recorded call for Nc1c2ccccc2nc2ccccc12 ? YES

* * *

- assay.name: chemical genetic growth profiling, strain panel (AID 1159580);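 further: tested at 20 µM; growth read once vehicle control cultures reached saturation at 30 °C; 1 = growth at the plate median or of vehicle wells; lower values mean less growth of the strain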
- particulars: S. cerevisiae deletion strains, growth OD, locus YCL029C, strain bik1, hits give low values
Hit rate of the full screen: of about 5,500 compounds, about 2,000 (36%) were called active. Not shown: some 18% with an inconclusive outcome. Some of the results follow.
Would you mind telling me the reported normalized growth of each entry?
One number for each entry.

Check out these entries, answers already filled in.
- compound: "Cc1cc(O)cc(O)c1C(=O)O"
  assay.metric: "normalized growth"
  readout.value: 1
- compound: "C[C@]12CCC(=O)C=C1CCC1C2[C@@H](O)C[C@@]2(C)C1CC[C@]2(O)C(=O)CO (some centres not stated)"
  assay.metric: "normalized growth"
  readout.value: 0.995
- compound: "CCCOc1ccccc1-c1nc2n[nH]nc2c(=O)[nH]1"
  assay.metric: "normalized growth"
  readout.value: 1.01
- compound: "CCCCCCCCCCCC[C@H](C(=O)O)[C@@H](C)C(=O)O"
  assay.metric: "normalized growth"
  readout.value: 1.02
- compound: "NC(N)=N/N=C/c1c(Cl)cccc1Cl"
  assay.metric: "normalized growth"
  readout.value: 1.01
- compound: "NC12CC3CC(CC(C3)C1)C2"
  assay.metric: "normalized growth"
  readout.value: 1.02
- compound: "C#C[C@]1(O)CCC2C3CCC4=C(CCC(=O)C4)C3CC[C@@]21C (some centres not stated)"
  assay.metric: "normalized growth"
  readout.value: 1.01
- compound: "C#C[C@]1(O)CCC2C3CCC4=CC(=O)CC[C@@H]4C3CC[C@@]21C (some centres not stated)"
  assay.metric: "normalized growth"
  readout.value: 0.984
- compound: "C[C@@H]1OC(O[C@H]2[C@H](OC(=O)[C@]34CCC(C)(C)CC3C3=CCC5[C@@]6(C)CC[C@H](OC7O[C@@H](C)[C@H](O[C@@H]8OC[C@@H](O)[C@H](O)[C@H]8O)[C@@H](O)[C@H]7O)C(C)(C)C6CC[C@@]5(C)[C@]3(C)CC4O)OC[C@H](O)[C@H]2O)[C@H](O)[C@H](O)[C@H]1O[C@@H]1O[C@H](CO)[C@@H](O)[C@H](O)[C@H]1O (some centres not stated)"
  assay.metric: "normalized growth"
  readout.value: 1.01
- compound: "C[C@@H]1CC[C@]2(C(=O)O)CC[C@]3(C)C(=CCC4[C@@]5(C)CC[C@H](O)C(C)(C)C5CC[C@]43C)C2[C@H]1C (some centres not stated)"
  assay.metric: "normalized growth"
  readout.value: 1

Respectfully, I request normalized growth for each entry included below.
1. Cc1cc(O)ccc1Cl
2. Nc1ccc(S(=O)(=O)Nc2ccnn2-c2ccccc2)cc1

0.983
0.995

Hey, just so you know, these numbers are from PubChem BioAssay AID1159580.
